molecular target: human TLR7 (Homo sapiens (Human)); assay: TLR7 inhibition reporter assay (HEK-Blue cells, SEAP reporter, gardiquimod stimulation); type: cell-based; details: HEK-Blue cells overexpressing human TLR7, gardiquimod 7.5 μM
pIC50: −log10 of the molar value.
ASSAY_ENDPOINT: pIC50

# COMPOUND, NUMERIC_VALUE
data = [
    ("Cc1cc(-c2[nH]c3ccc(C4CCN(C(=O)CN(C)CCO)CC4)cc3c2C(C)C)cc(C)n1 [Example 420]", 8.82),
    ("Cc1cc(-c2[nH]c3ccc(C4CCN(C(=O)CN5CCCCS5(=O)=O)CC4)cc3c2C(C)C)cc(C)n1 [Example 167]", 8.23),
    ("Cc1cc(-c2[nH]c3ccc(C4CCN(CCC#N)CC4)cc3c2C(C)C)c(C)cn1 [Example 665]", 7.87),
]

[A] Cc1cc(-c2[nH]c3ccc(C4CCN(C5COC5)CC4)cc3c2C(C)C)ccn1 [Example 711]
[B] CNC(=O)C(=O)N1CCC(c2ccc3[nH]c(-c4cc(C)nc(C)c4)c(C(C)C)c3c2)CC1 [Example 204]
[C] Cc1cc(-c2[nH]c3ccc(C4CCN(CC(=O)N5CCC[C@H](O)C5)CC4)cc3c2C(C)C)cc(C)n1 [Example 210]
Please list the entries, largest pIC50 first. Please list the labels in the order you were asked to rank them.
C, B, A

[I] CCN1CCC(N2CCC(c3ccc4[nH]c(-c5ccnc(OC)c5)c(C(C)C)c4c3)CC2)CC1 [Example 801]
[II] CCN(C)CC(=O)N1CCC(c2ccc3[nH]c(-c4cc(C)nc(C)c4)c(C(C)C)c3c2)CC1 [Example 356]
Of the pair I and II , name the member with the lesser recorded pIC50. Response format: the label of the selected entry.
I
(I: 6.25, II: 8.48)

----------
biological target: human TLR9 (Homo sapiens (Human)); experiment: TLR9 inhibition reporter assay (HEK-Blue cells, SEAP reporter, ODN2006 stimulation); settings: TLR9 IC50, HEK-Blue cells overexpressing human TLR9, ODN2006 5 nM
ASSAY_ENDPOINT: IC50 (nM)

Observe how each entry below is paired with its result.
# COMPOUND, UOM, IC50
data = [
    ("CCNC(=O)CN1CCC(c2ccc3[nH]c(-c4cc(C)nc(C)c4)c(C(C)C)c3c2)CC1", "nM", 965),
    ("Cc1cc(-c2[nH]c3ccc(C4CCN(C(=O)CNCC5(C)CC5)CC4)cc3c2C(C)C)cc(C)n1", "nM", 854),
]

[a] Cc1cc(-c2[nH]c3ccc(C4CCNCC4(F)F)cc3c2C(C)C)cc(C)n1 (single isomer, unassigned) [Example 489A]
[b] Cc1cc(-c2[nH]c3ccc(C4CCN(CC(=O)N5CC[C@@H](O)C5)CC4)cc3c2C(C)C)cc(C)n1
Of the pair a and b , name the member with the lesser recorded IC50. Response format: the label of the selected entry.
b
(b: 67 nM, a: 849 nM)

----------
biological target: human TLR9 (Homo sapiens (Human), UniProt Q9NR96); experiment: TLR9 inhibition reporter assay (HEK-Blue cells, SEAP reporter, ODN2006 stimulation); conditions: read-out: TLR9 IC50, HEK-Blue cells overexpressing human TLR9, ODN2006 5 nM;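 also: compounds tested over 0.05 nM to 50 µM, 22 h incubation, inhibition taken as SEAP signal drop from agonist plus DMSO wells toward a known inhibitor control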
Sequence (Q9NR96 26-1032): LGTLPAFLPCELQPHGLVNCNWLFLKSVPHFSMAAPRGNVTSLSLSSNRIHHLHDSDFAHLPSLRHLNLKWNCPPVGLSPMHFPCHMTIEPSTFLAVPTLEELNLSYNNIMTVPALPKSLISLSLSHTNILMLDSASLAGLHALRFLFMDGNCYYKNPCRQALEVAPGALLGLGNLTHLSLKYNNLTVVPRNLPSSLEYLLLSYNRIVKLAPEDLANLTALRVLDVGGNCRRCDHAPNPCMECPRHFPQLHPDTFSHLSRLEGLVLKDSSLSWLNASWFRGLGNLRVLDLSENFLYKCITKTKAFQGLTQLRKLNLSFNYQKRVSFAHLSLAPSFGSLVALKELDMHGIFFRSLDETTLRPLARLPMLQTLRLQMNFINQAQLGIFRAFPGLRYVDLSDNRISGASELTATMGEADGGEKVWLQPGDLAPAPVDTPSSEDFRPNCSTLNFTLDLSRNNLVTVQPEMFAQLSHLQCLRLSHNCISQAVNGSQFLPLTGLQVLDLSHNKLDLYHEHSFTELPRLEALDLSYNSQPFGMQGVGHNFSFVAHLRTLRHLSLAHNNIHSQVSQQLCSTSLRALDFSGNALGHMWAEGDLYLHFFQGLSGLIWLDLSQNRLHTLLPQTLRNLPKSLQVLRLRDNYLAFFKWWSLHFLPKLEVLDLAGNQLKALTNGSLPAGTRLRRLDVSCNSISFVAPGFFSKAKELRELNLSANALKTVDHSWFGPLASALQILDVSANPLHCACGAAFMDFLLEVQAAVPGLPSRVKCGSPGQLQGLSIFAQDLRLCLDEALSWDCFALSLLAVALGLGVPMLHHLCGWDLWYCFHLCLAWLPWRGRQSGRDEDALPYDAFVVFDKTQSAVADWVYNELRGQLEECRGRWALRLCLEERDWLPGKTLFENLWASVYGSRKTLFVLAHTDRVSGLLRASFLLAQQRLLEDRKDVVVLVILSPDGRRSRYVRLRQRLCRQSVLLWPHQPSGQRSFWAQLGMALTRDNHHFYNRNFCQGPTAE
pIC50: −log10 of the molar value.
ASSAY_ENDPOINT: pIC50

# MOLECULE, NUMERIC_VALUE
rows = [
    ("Cc1cc(-c2[nH]c3ccc(C4CCN(C(=O)OCC(C)C)CC4)cc3c2C(C)C)ccn1 [Example 558]", 4.82),
]

[I] CCN1CCC(N2CCC(c3ccc4[nH]c(-c5ccnc(OC)c5)c(C(C)C)c4c3)CC2)CC1 [Example 801]
[II] Cc1cc(-c2[nH]c3ccc(C4CCN(Cc5nn[nH]n5)CC4)cc3c2C(C)C)cc(C)n1 [Example 462]
[III] CC(C)c1c(-c2ccncc2CO)[nH]c2ccc(C3CCNCC3)cc12 [Example 19]
[IV] CC(C)c1c(-c2ccnc(Cl)c2F)[nH]c2ccc(C3CCNCC3)cc12 [Example 21]
[V] CCc1c(-c2ccnc(N(C)C)c2)[nH]c2ccc(C3CCN(C4CCN(CC(C)C)CC4)CC3)cc12 [Example 767]
// smallest pIC50 at index 0, largest at the end Please list the labels in the order you were asked to rank them.
II, IV, III, I, V

[P] CNCC(=O)N1CCC(c2ccc3[nH]c(-c4ccnc(C)c4)c(C(C)C)c3c2)CC1 [Example 510]
[Q] CNCCN1CCC(c2ccc3[nH]c(-c4cc(OC)ncc4F)c(C)c3c2)CC1 [Example 756]
Consider P and Q . Which of these has its pIC50 at a higher number? Response format: the label of the selected entry.
P
(P: 6.16, Q: 5.48)

----------
target: human TLR8 (Homo sapiens (Human), UniProt Q9NR97); assay: TLR8 inhibition reporter assay (HEK-Blue cells, SEAP reporter, R848 stimulation); settings: read-out: TLR8 IC50, HEK-Blue cells overexpressing human TLR8, R848 15.9 μM
Sequence (Q9NR97 27-1041): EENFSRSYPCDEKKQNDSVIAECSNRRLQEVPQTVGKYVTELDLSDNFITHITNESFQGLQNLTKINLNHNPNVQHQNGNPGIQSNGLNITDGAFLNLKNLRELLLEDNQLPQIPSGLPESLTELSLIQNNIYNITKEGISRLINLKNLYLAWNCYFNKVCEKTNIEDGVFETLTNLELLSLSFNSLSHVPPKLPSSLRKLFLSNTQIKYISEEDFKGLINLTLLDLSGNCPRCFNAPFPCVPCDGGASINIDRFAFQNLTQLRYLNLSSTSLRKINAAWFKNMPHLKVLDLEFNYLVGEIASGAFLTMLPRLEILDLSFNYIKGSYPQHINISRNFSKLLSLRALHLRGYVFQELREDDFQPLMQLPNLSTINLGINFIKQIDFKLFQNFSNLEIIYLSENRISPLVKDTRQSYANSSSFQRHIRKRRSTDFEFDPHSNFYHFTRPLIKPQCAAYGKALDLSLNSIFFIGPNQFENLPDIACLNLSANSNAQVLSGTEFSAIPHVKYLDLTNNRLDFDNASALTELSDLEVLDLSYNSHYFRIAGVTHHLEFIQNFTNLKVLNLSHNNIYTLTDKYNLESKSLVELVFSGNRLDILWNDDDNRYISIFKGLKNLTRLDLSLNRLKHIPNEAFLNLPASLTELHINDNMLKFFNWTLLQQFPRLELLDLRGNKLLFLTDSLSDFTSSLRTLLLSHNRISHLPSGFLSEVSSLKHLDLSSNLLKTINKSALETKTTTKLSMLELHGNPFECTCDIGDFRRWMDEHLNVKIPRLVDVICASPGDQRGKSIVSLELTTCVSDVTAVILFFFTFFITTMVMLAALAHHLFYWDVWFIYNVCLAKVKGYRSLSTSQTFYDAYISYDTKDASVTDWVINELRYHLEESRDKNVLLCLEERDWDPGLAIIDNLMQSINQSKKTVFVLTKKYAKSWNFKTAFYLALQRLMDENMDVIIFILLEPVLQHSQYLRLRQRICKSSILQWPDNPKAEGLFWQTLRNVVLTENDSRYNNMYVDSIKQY
pIC50: −log10 of the molar value.
ASSAY_ENDPOINT: pIC50

Observe how each entry below is paired with its result.
# MOLECULE, NUMERIC_VALUE
data = [
    ("Cc1cc(-c2[nH]c3ccc(C4CCN(C5CC(C)OC(C)C5)CC4)cc3c2C(C)C)cc(C)n1 (stereo not shown) [Example 455]", 8.12),
    ("Cc1cc(-c2[nH]c3ccc(C4CCN(Cc5ncn(C)n5)CC4)cc3c2C(C)C)c(C)cn1", 8.08),
    ("Cc1cc(-c2[nH]c3ccc(C4CCN(C(=O)CCN5CCOCC5)CC4)cc3c2C(C)C)c(F)cn1", 8.28),
    ("Cc1cc(-c2[nH]c3ccc(C4CCN(C(=O)CN5CCCC(O)C5)CC4)cc3c2C(C)C)cc(C)n1 (stereo not shown)", 7.95),
    ("CC(C)c1c(-c2ccnc(C#N)c2C(F)(F)F)[nH]c2ccc(C3CCNCC3)cc12", 6.64),
]

[P] COc1cc(-c2[nH]c3ccc(C4CCNCC4)cc3c2C(C)C)cc(C2CC2)n1
[Q] Cc1cc(-c2[nH]c3ccc(C4CCN(CC5CCOC5)CC4)cc3c2C(C)C)cc(C)n1 (stereo not shown)
Consider P and Q . Which of these has its pIC50 at a higher number? Response format: the label of the selected entry.
Q
(Q: 8.54, P: 6.67)

----------
biological target: human TLR7 (Homo sapiens (Human), UniProt Q9NYK1); experiment: TLR7 inhibition reporter assay (HEK-Blue cells, SEAP reporter, gardiquimod stimulation); format: cell-based; details: HEK-Blue cells overexpressing human TLR7, gardiquimod 7.5 μM
Sequence (Q9NYK1 27-1049): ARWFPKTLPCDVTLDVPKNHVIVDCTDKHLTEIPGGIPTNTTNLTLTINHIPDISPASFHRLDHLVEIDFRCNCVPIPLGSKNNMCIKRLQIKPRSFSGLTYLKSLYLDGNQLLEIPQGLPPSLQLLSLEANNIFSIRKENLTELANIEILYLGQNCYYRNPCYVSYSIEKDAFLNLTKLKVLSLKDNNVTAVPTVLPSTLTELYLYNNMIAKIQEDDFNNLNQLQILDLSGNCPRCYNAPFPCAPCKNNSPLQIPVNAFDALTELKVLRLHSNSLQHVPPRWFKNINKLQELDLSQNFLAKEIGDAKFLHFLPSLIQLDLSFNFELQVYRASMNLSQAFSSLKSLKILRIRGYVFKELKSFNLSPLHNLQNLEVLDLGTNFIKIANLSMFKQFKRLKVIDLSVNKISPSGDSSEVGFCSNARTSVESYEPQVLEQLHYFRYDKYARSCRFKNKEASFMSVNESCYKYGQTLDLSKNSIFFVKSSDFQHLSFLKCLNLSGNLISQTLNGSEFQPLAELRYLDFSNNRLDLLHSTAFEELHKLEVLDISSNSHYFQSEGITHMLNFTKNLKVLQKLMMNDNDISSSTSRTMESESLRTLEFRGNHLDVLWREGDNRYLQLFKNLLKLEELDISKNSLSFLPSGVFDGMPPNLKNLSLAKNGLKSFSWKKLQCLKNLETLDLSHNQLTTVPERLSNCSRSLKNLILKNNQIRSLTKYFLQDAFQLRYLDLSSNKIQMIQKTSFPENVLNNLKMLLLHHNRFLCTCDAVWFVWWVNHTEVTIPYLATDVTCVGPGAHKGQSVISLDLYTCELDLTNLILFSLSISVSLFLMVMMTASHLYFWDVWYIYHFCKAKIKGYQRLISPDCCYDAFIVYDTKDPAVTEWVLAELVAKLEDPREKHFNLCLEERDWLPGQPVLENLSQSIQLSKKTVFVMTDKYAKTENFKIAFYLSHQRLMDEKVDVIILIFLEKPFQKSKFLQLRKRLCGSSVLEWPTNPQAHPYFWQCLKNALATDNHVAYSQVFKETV
ASSAY_ENDPOINT: IC50 (nM)

Observe how each entry below is paired with its result.
# COMPOUND, NUMERIC_VALUE
records = [
    ("Cc1cc(-c2[nH]c3ccc(C4CCN(C(=O)CN(C)C(C)(C)C)CC4)cc3c2C(C)C)cc(C)n1 [Example 359]", 7.1),
    ("Cc1cc(-c2[nH]c3ccc(C4CCN(CC(=O)N5CC(F)(F)C5)CC4)cc3c2C(C)C)cc(C)n1 [Example 215]", 4.9),
    ("CCCNCC(=O)N1CCC(c2ccc3[nH]c(-c4cc(C)nc(C)c4)c(C(C)C)c3c2)CC1 [Example 348]", 3.6),
]

[1] Cc1cc(-c2[nH]c3ccc(C4CCN(C(=O)CN5CCC(F)(F)C5)CC4)cc3c2C(C)C)cc(C)n1 [Example 341]
[2] Cc1cc(-c2[nH]c3ccc(C4CCNCC4)cc3c2C(C)C)c(C#N)c(NCC2CC2)n1 [Example 32]
[3] Cc1cc(-c2[nH]c3ccc(C4CCN(CC(=O)N[C@H](CO)CC(C)C)CC4)cc3c2C(C)C)cc(C)n1 [Example 276]
// smallest IC50 at index 0, largest at the end Please list the labels in the order you were asked to rank them.
3, 1, 2

[1] Cc1cc(-c2[nH]c3ccc(C4CCN(Cc5ccccc5)CC4)cc3c2C(C)C)cc(C)n1 [Example 318]
[2] Cc1cc(-c2[nH]c3ccc(C4CCN(CC(=O)N(C)CC(C)C)CC4)cc3c2C(C)C)cc(C)n1 [Example 245]
Consider 1 and 2 . Which of these has its IC50 at a higher number? Response format: the label of the selected entry.
1

[a] Cc1cc(-c2[nH]c3ccc(C4CCN(C(=O)C5(N)COC5)CC4)cc3c2C(C)C)ccn1 [Example 634]
[b] Cc1cc(-c2[nH]c3ccc(C4CCN(C(=O)C(F)F)CC4)cc3c2C(C)C)cc(C)n1 [Example 105]
Of the pair a and b , name the member with the lesser recorded IC50. Response format: the label of the selected entry.
b

----------
target: human TLR8 (Homo sapiens (Human), UniProt Q9NR97); experiment: TLR8 inhibition reporter assay (HEK-Blue cells, SEAP reporter, R848 stimulation); settings: read-out: TLR8 IC50, HEK-Blue cells overexpressing human TLR8, R848 15.9 μM;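 also: compounds tested from 0.05 nM to 50 µM, 22 h at 37 °C, SEAP measured with HEK-Blue Detection, inhibition relative to agonist plus DMSO versus a known inhibitor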
ASSAY_ENDPOINT: IC50 (nM)

Observe how each entry below is paired with its result.
# COMPOUND, IC50 / nM
rows = [
    ("Cc1cc(-c2[nH]c3ccc(C4CCNCC4)cc3c2C(C)C)cc(N2CCN(C)CC2)n1 [Example 480]", 7060),
    ("Cc1cc(-c2[nH]c3ccc(C4CCN(C5COC5)CC4)cc3c2C(C)C)c(C)cn1 [Example 722]", 6.3),
    ("Cc1cc(-c2[nH]c3ccc(C4CCN(C(=O)CN5CCC(F)CC5)CC4)cc3c2C(C)C)cc(C)n1 [Example 388]", 20.9),
    ("CNCCN1CCC(c2ccc3[nH]c(-c4ccnc(C(=O)OC)c4)c(C)c3c2)CC1 [Example 752]", 114),
    ("Cc1cc(-c2[nH]c3ccc(C4CCN(C(=O)C5CC5)CC4)cc3c2C(C)C)ccn1 [Example 606]", 186),
    ("CNCCN1CCC(c2ccc3[nH]c(-c4cc(OC)ncc4F)c(C)c3c2)CC1 [Example 756]", 185),
]

[A] CCc1c(-c2ccnc(Cl)c2)[nH]c2ccc(C3CCN(C4CCN(CC(C)C)CC4)CC3)cc12 [Example 758]
[B] CNCC(=O)N1CCC(c2ccc3[nH]c(-c4cc(C)nc(C5CC5)c4)c(C(C)C)c3c2)CC1 [Example 508]
Consider A and B . Which of these has its IC50 at a higher number? Response format: the label of the selected entry.
A
(A: 136 nM, B: 57.9 nM)

Values were extracted from patent US10660877B2.
